# Measurement Target: CYP3A2 (Rattus norvegicus)
# Construct: tissue Merck; host or cells: pooled liver microsomes from male Sprague Dawley rats
# Protocol Description: Inhibition of dexamethasone 6β-hydroxylation (CYP3A2 activity) by aspirin in rat liver microsomes, HPLC
# Format: in vitro ADME
# Run Parameters: male, rat, liver microsomes, pH 7.4, probe dexamethasone (6β-hydroxylation), 10, 20, 30, 40 and 50 µM
# Description: Assay development and validation were carried out using a LC-2010A HT Module HPLC system (Shimadzu, Toyko, Japan). […] The chromatographic separation was performed at 25 °C and at a flow rate of 0.6 mL/min. A 10 µL solution volume was injected for HPLC analysis, and all the components were detected at the 243 nm wavelength. […] Data were analysed using Microsoft Excel 2010 software for validation and the kinetic parameters. […]
Parameter: inhibition at 40 min, 100 µM (%)
Response body: numeric value in %, unit text excluded.

For CC(=O)Oc1ccccc1C(=O)O [Aspirin, acetylsalicylic acid] the compound record lists inhibition at 40 min, 100 µM as 23.3

* * *

# Measurement Target: CYP3A2 (Rattus norvegicus, UniProt P05183)
# Construct: tissue Merck; host or cells: pooled liver microsomes from male Sprague Dawley rats
# Sequence (P05183 whole entry): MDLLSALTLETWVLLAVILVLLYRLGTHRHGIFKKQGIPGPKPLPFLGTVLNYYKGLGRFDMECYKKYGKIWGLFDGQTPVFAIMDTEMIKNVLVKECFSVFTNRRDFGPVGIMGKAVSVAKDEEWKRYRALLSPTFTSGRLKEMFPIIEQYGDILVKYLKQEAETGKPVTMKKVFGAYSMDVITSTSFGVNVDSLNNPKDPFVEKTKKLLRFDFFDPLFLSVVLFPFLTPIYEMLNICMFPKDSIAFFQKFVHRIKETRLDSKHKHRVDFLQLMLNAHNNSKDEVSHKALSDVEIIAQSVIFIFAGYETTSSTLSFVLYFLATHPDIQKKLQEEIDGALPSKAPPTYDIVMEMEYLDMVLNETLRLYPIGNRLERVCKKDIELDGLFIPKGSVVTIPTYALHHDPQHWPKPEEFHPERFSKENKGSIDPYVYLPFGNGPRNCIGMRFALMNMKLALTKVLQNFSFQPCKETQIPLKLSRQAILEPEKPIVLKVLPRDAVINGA
# Protocol Description: Inhibition of dexamethasone 6β-hydroxylation (CYP3A2 activity) by aspirin in rat liver microsomes, HPLC
# Format: in vitro ADME
# Run Parameters: male, rat, liver microsomes, pH 7.4, probe dexamethasone (6β-hydroxylation), 10, 20, 30, 40 and 50 µM
Parameter: inhibition at 40 min, 200 µM (%)
Response body: numeric value in %, unit text excluded.

Data point: CC(=O)Oc1ccccc1C(=O)O ; inhibition at 40 min, 200 µM = 53.6

* * *

# Measurement Target: CYP3A2 (Rattus norvegicus, UniProt P05183)
# Construct: tissue Merck; host or cells: pooled liver microsomes from male Sprague Dawley rats
# Protocol Description: Inhibition of dexamethasone 6β-hydroxylation (CYP3A2 activity) by aspirin in rat liver microsomes, HPLC
# Assay type: in vitro ADME
# Run Parameters: male, rat, liver microsomes, pH 7.4, probe dexamethasone (6β-hydroxylation), 10, 20, 30, 40 and 50 µM
Parameter: inhibition at 40 min, 50 µM (%)
Note: unit % is implicit; provide only the numeric part.

The measured inhibition at 40 min, 50 µM associated with CC(=O)Oc1ccccc1C(=O)O reads 12.4

* * *

# Measurement Target: UniProt P05183
Parameter: Ki (µM)
I only need the number, in µM, no unit after it.

Record CC(=O)Oc1ccccc1C(=O)O ; system UniProt P05183; Ki = 95.5

Reference for the values: paper PMC8838585
